Subject Of Test: T1, recombinant dimeric c-Met (R&D systems, 358-MT/CF) (human, UniProt P08581 25-932)
T1 construct: Bought product; also called Fc-Met; recombinant c-Met
Test Name: SPR, Fab-containing periplasmic extract over immobilised c-Met, dissociation 2 min
Criterion: koff strictly under 0.0009 s⁻¹. Met: t. Not met: f.

Consider the following illustrative entries.
{"Binder": "34H7 Fab (Fab, V domains shown, Fab from the phage display library, tested as periplasmic extract) VH: ELQLVESGGALVQPGGSLRLSCVESGFTFSSYAMSWVRQAPGKGLEWVSGIYKGGGPKYANSVKGRFTISRDNAKNTLYLQMNSLKPEDTAVYYCAKSGYGSSLGDFGSWGQGTQVTVSS VL: QAGLTQLSSMSGSPGQTVTITCTGSSSNIGGGYYLSWYQHLPGTAPKLLIYSNINRASGVPDRFSGSTSGISASLTITGLQAEDEADYYCSSWDDSVSGPVFGGGTSLTVL", "Classification": "f"}
{"Binder": "13E6 Fab (Fab, V domains shown, Fab from the phage display library, tested as periplasmic extract) VH: QVQLQESGGDLVQPGGSLRLSCAASGFTFDDYVMNWVRQAPGKGLEWISAINWNGGSTYYAESMKGRFTISRDNAKNTLYLQMYSLQSDDTAVYYCVKDTVVSGNGYWGQGTQVTVSS VL: QSVLTQPPSVSGTLGKTVTISCAGTSSDIGDYNYVSWYQQLPGTAPKLLIYDVNKRASGIPDRFSGSKSGNTASLSISGLQSEDEADYYCASYRSRNDYAFGGGTKLTVL", "Classification": "t"}
{"Binder": "20F1 Fab (Fab, V domains shown, Fab from the phage display library, tested as periplasmic extract) VH: EVQVQESGPGLVKPSQTLSLTCTVSGGSMTGNYYAWSWIRQPPGKGLEWMGVIAYDGSTYYSPSLKSRTSISRDTSKNQFSLQLSSVSPEDTAVYYCARGPGWYSGSRNDYWGQGTQVTVSS VL: QSALTQPPSVSGSPGKTVTISCTGTNSDVGYGNYVSWYQQLPGMAPKLLIYDVNRRASGIADRFSGSKSGNTASLTISGLQSEDEGDYHCASYRSANNAVFGGGTHLFVL", "Classification": "f"}

Pending binder:
Does the reported koff of the following binder sit strictly below 0.0009 s⁻¹? 12G4 Fab (Fab, V domains shown, Fab from the phage display library, tested as periplasmic extract) VH: QLQLVESGGGMAQPGGSLKLSCAASGFTFDDYAMTWVRQAPGKGLEWLSTISWNDINTYYAESMKDRFTISRDNAKNTLYLQMNSLESEDTAVYYCAKRRDNYYGTSGEYDYWGQGTQVTVSS VL: QSALTQPPSVSGTLGKTVTISCAGTSSDIGNYNYVSWYQQLPGTAPKLLIYEVNKRPSGIPDRFSGSKSGNTASLSISGLQSEDEADYYCASYRSSNNVVFGGGTKLTVL
t
